Hello, the source for this data is the nanobody polyreactivity screen of Harvey et al. (2022), in case you need it.

test: yeast display, Sf9 membrane polyspecificity reagent, FACS + sequencing; frameworks hold sequencing errors
Readout type: polyreactivity (PSR sort gate)

sequence_input=QVQLVESGGGLVQARGSLRLSCAASGRTFTYNAMAWYRQAPGKERELVAAINSGGSTNYADSVKGRFTISRDNAKNTVYLQMNSLKPEDTAVYYCNAGFGFGSSRYGTRYYYWGQGSQVTVSS data_value="low polyreactivity"
sequence_input=QVQLVESGGGLVQAGGSLRLSCAASGNIFNEYARGWYSQAPGKESELVAAITWSAGSTYYADSVKGRFTISRDNAKNTVYLQMNSVKPEDTGVYYCNTQEKANTQHYYWGQGTQVTVSS data_value="low polyreactivity"

====

assay: yeast display, Sf9 membrane polyspecificity reagent, FACS + sequencing; frameworks hold sequencing errors
Readout type: polyreactivity (PSR sort gate)

Past entries and their recorded results:
sequence_input=QVQLVESGGSLVQAGGSLRLSCAASGFIFIRYAMGWYRQAPGKERELVAAITTSTGRTYYADSVKGRFTISRDNAKNTVYLQMNSLKPEDTAVYYCAAVPWKRYDYYTPFARGYWGQGTQVTVSS readout_type="polyreactivity (PSR sort gate)" data_value="low polyreactivity"
sequence_input=QVQLVESGGGLVQAGGSLRLSCAASGSTFYFNAMGWYRQAPGKEREFVAAITYSGGSTNYADSVKGRFTISRDNAKNTVYLQMNSLKPEDTAVYYCAARRYSYYYWYDYWGQGTQVTVSS readout_type="polyreactivity (PSR sort gate)" data_value="high polyreactivity"
sequence_input=QVQLVETGGGLVQAGGSLRLSCAASGRIFGVNARGWYRQAPGKERELVAAIFSGGSTYYADSVKGRFTISRDNAKNTVYVEMNSLKPEDTAVYYCAARFARYDWSMYYWGQGTQVTVSS readout_type="polyreactivity (PSR sort gate)" data_value="low polyreactivity"
sequence_input=QVQLVESGGGLVQAGGSLRLSCAASGRTFVFYAMGWYRPAPGKERQLVAAITSGTSTNYADSVKGRFTISRDNAKNTGYLQMNSLNPEDTAVYYCAAYWTDLTYSIGFGYWGQGTQVTVSS readout_type="polyreactivity (PSR sort gate)" data_value="low polyreactivity"
sequence_input=QVQLEESGGGLVQAGGSLRLSCAASGRTFPLYVMGWYRQAPGKEREWVAAISARGGSTYYADSVKGRFTISRDNAKNTVYLQMNSLKPEDTAVYYCATLVTNGRYDSWGQGTQVTVSS readout_type="polyreactivity (PSR sort gate)" data_value="high polyreactivity"
sequence_input=QVQLVESGGGLVQAGGSLRLSCAASGSIFEVNAMGWYRQAPGKERELVAGISNADSTNYADSVKGRFTISRDNAKNTVYLQMNSLKPEDTAVYYCATDLYRDHPKDLLGPEYDYWGQGTQVTVSS readout_type="polyreactivity (PSR sort gate)" data_value="low polyreactivity"

Fill in: polyreactivity (PSR sort gate) of QVQLVESGGGLVQAGGSLRLSCAASGRIFGINARGWYRPAPGKERELVAAINWSGGSTYYADSVKGRFTISRDNAKNTVYLHMNSLKPEDTAVYYCAADFYRRYYRYGYWGQGTQVTVSS is ___
high polyreactivity

====

test: yeast display, Sf9 membrane polyspecificity reagent, FACS + sequencing; frameworks hold sequencing errors
Readout type: polyreactivity (PSR sort gate)

Past entries and their recorded results:
sequence_input=QVQLVESGGGLVQAGGSLRLSCASSGFIFRWYTMGWYRQAPGKERELVAAISWSSGSTSYADSVKGRFTISRDNAKNTVYLQMNSLKPEDTAVYYCAAVWRTASTQYYYWGQGTQVTVSS readout_type="polyreactivity (PSR sort gate)" data_value="high polyreactivity"
sequence_input=QVQLVESGGGLVQAGGSLRLSCAASGRIFTYYAMGWYIQAPGKERELVASITGSGGSTDYADSVKGRFTISRDNAKNTVYLQRNSLKPEDTAVYYCAADGLSYGPLYNYDYWGQGTQVTVSS readout_type="polyreactivity (PSR sort gate)" data_value="low polyreactivity"
sequence_input=QVQLVESGGGLVQARGSLRLSSAASGRTFHYNAMGWYRQAPGKERELVAAISFNGGGTYYADSVKGRFTISRDNAKNTVYLQMNCLKTEDTAVYYCATDVPSRYDYWGQGTQVTVSS readout_type="polyreactivity (PSR sort gate)" data_value="low polyreactivity"
sequence_input=QVQLVESRGGLVQAGGSLRLSCAASGSIFTSYAMGWYRQAPGKERELVAAINGSGGSTFYADSVKGRFTISRDNAKNTVYLQMNSLKPQDTAVYYCNTGGPRGTTYDYWGQGTQVTVSS readout_type="polyreactivity (PSR sort gate)" data_value="low polyreactivity"

Fill in: polyreactivity (PSR sort gate) of QVQLVDSGGGLVQAGGSLSLSCAASGSTFTWYAMGWYIQAPGKERELVAASRWSGGNTYYADSVKGRFTISRDNAKHTVYLQMNSLKPEDPAVYYCAARLYTAADHYNDWGQGTQVTGSS is ___
high polyreactivity
